Assay: small-molecule microarray binders of probe aDKK1, primary screen, biochemical, biotinylated probe, 635/667 nm fluorescence (AID 1099);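 note: score merges 667nm spot fluorescence with signal to noise across triplicate slides; reference of the scale not given here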
Conditions: higher = more signal
Listing of recorded composite z-score by entry.
The response must contain the number and no unit.

Examples from the recorded data:
{"molecule": "COc1ccc(O[C@H]2C=C[C@@H](c3ccccc3)O[C@@H]2COC(=O)CCC(C)=NOC(C)CN2CCCCc3nc(C)c(C)cc32)cc1 (stereo not given in full)", "obs_value": -0.0789}
{"molecule": "COCCOC(=O)N1C(=O)[C@@]2(c3cc(C#CCNC(N)=O)ccc31)[C@H](c1ccccc1OCCO)N1[C@H](c3ccccc3)[C@H](c3ccccc3)OC(=O)[C@H]1[C@@H]2C(=O)N1CCN(c2ncccn2)CC1", "obs_value": 0.376}
{"molecule": "C[N+](C)(C)CCCCCCNC(=O)[C@@H]1C[C@@H]2C(=O)N3CCC[C@H]3C(=O)N2[C@@H]1c1cccc(OCCO)c1", "obs_value": -0.303}

Entry `O=C1[C@H]2[C@H]3[C@H](O)[C@H](O)CC(=NO[C@@H]4O[C@H](CO)[C@@H](O)[C@H](O)[C@H]4O)[C@H]3CC[C@H]2C(=O)N1Cc1ccccc1` : reported composite z-score = ?
-0.223
